Target: VRK1 (human)
Experiment: radiometric filter-binding kinase assay, Kinase HotSpot
Conditions: compound 0.5 µM; ATP 10 µM
ASSAY_READOUT: residual activity (%)
Write down the numeric answer in % and omit the unit.

SMI | ASSAY_READOUT | REPORTED
Cc1cc(Nc2nc(-c3ccccc3)nc3ccccc23)n[nH]1 | residual activity | 81
CCc1nc(-c2ccc(OC)cc2)[nH]c1-c1ccncc1 | residual activity | 104
COc1cc2c(N3CCN(C(=O)Nc4ccc(OC(C)C)cc4)CC3)ncnc2cc1OCCCN1CCCCC1 | residual activity | 100
COc1cccc(-c2cc(=O)c3ccccc3o2)c1N | residual activity | 89.4
N#CCCc1ccc2c(c1)-c1[nH]c3ccc([N+](=O)[O-])cc3c1CC(=O)N2 | residual activity | 97.5
FC(F)(F)c1ccc(/C=C/c2nc(COc3ccc(CCCCn4ccnn4)cc3)co2)cc1 | residual activity | 99.8
COc1cc2c(Nc3ccc(Br)cc3F)ncnc2cc1OCC1CCN(C)CC1 | residual activity | 98.9
COc1cc2c(cc1OC)-c1[nH]nc(Nc3cccc(F)c3)c1C2 | residual activity | 89.9

Req: What does the data say about its residual activity? Entry: "N#C/C(=C1/Nc2ccccc2S1)c1ccnc(NCCc2cccnc2)n1"
Resp: 94.1

Req: What does the data say about its residual activity? Entry: "O=S(=O)(NCCNC/C=C/c1ccc(Br)cc1)c1cccc2cnccc12"
Resp: 80.1
